Target: HLA-B*53:01
Assay: IEDB peptide-MHC binding, purified MHC/competitive/radioactivity; bounds were set here for any values at or beyond the usual limits of such assays
Settings: source organism: Bordetella pertussis
value kind: IC50

[[record]]
seq_string = "MAAGHDATL"
result = "6.13 µM"

[[record]]
seq_string = "DATFQTYAL"
result = "65.4 µM"


----------
In this section, each of the sequences is paired with its reported IC50.
Target: HLA-B*57:01
Test: IEDB peptide-MHC binding, purified MHC/competitive/radioactivity; bounds were set here for any values at or beyond the usual limits of such assays
Settings: source organism: Bordetella pertussis
value kind: IC50 (µM)

[[record]]
seq_string = "DHLTGRSCQ"
reported_relation = "≥"
numeric_readout = 70.4

[[record]]
seq_string = "GAFDLKTTF"
reported_relation = "="
numeric_readout = 50.9

[[record]]
seq_string = "VSSATKAKG"
reported_relation = "≥"
numeric_readout = 70.4

[[record]]
seq_string = "RSRVRALSW"
reported_relation = "="
numeric_readout = 0.0584


----------
In this section, each of the sequences is paired with its reported pIC50.
Biological target: HLA-B*35:01
Experiment: IEDB peptide-MHC binding, purified MHC/competitive/radioactivity; bounds were set here for any values at or beyond the usual limits of such assays
Conditions: source organism: Bordetella pertussis
pIC50: −log10 of the molar value.
value kind: pIC50

[[record]]
seq_string = "DATFQTYAL"
system_under_test = "HLA-B*35:01"
numeric_readout = 4.77

[[record]]
seq_string = "PKPKPKPKA"
system_under_test = "HLA-B*35:01"
numeric_readout = 4.16

[[record]]
seq_string = "GKSLKKKNQ"
system_under_test = "HLA-B*35:01"
numeric_readout = 4.16

[[record]]
seq_string = "LALQAGDAL"
system_under_test = "HLA-B*35:01"
numeric_readout = 4.50

[[record]]
seq_string = "EVAGALELS"
system_under_test = "HLA-B*35:01"
numeric_readout = 4.16

